The measurements presented in this section are drawn from ChEMBL document CHEMBL5058577.

Population Normal (%) values, listed per item
- Tested on: HEK-293T
- runDescription: Multiplex assay against HEK293T
- Type: toxicity, cell-based
- measurementParameters: human, 12 h, 10 µM, compound concentration 10 uM, replicate 2

compound	Population Normal (%)
CC[C@H]1OC(=O)[C@H](C)[C@@H](O[C@H]2C[C@@](C)(OC)[C@@H](O)[C@H](C)O2)[C@H](C)[C@@H](O[C@@H]2O[C@H](C)C[C@H](N(C)C)[C@H]2O)[C@@]2(C)CC(C)=C(O2)[C@H](C)[C@@H](O)[C@]1(C)O	89%
N#Cc1c(N)nc(SCc2csc(-c3ccc(Cl)cc3)n2)c(C#N)c1-c1ccc(OCCO)cc1 [CAPADENOSON]	85%
CCCN1CCC[C@@H]2Cc3n[nH]cc3C[C@H]21.Cl [QUINPIROLE HYDROCHLORIDE]	94%
C[C@H]1[C@H]2CC[C@H]3[C@@H]4CC=C5C[C@@H](N(C)C)CC[C@]5(C)[C@H]4CC[C@]23CN1C [CONESSINE]	90%
CCOc1c2c(c(OCC)c3ncccc13)CN(c1ccc(CS(=O)(=O)NC(=O)Cc3ccccc3OC)cc1C)C2=O	90%
Cc1ccc(/C(=C\CN2CCCC2)c2ccccn2)cc1 [TRIPROLIDINE]	91%
N[C@@]1(C(=O)O)CO[C@H]2[C@H](C(=O)O)[C@H]21 [LY-379268]	92%

###

- System: U2OS
- runDescription: Multiplex assay against U2OS
- Format: toxicity, cell-based
- measurementParameters: human, 48 h, 10 µM, compound concentration 10 uM, replicate 1
Population Hoechst High Intensity Objects (%) values, listed per item
measure: Population Hoechst High Intensity Objects (%)

>>> df
                                   compound  datavalue
0        Cc1ccc(/C(=C\CN2CCCC2)c2ccccn2)cc1          2
1  CCOc1c2c(c(OCC)c3ncccc13)CN(c1ccc(CS(=O)(=O)NC(=O)Cc3ccccc3OC)cc1C)C2=O          2
2  Cl.Clc1ccc2nsnc2c1NC1=NCCN1 [TIZANIDINE HYDROCHLORIDE]          2
3   CN(C)c1ccnc2sc3c(=O)n(N4CCCCCC4)cnc3c12          4
4  C[C@H](NC(=O)c1c(C(F)F)nn(C)c1Oc1cccc(C(F)(F)F)c1)c1ccc(C(=O)O)cc1          2
5  CCCN1CCC[C@@H]2Cc3n[nH]cc3C[C@H]21.Cl [QUINPIROLE HYDROCHLORIDE]          3
6  Cc1ccc(F)cc1C(=O)Nc1ccc(C(=O)N2Cc3cccn3Cc3ccccc32)c(Cl)c1          5
7  CN(C)CCCc1cc(C(=O)Nc2ccc(-c3ccncc3)cc2)ccc1O.Cl.Cl          5
8  O=S(=O)(c1ccccc1)c1cnc2c(N3CCNCC3)cccc2c1 [INTEPIRDINE]          4

###

- Test system: U2OS
- runDescription: Multiplex assay against U2OS
- Assay type: toxicity, cell-based
- measurementParameters: human, 12 h, 1 µM, compound concentration 1 uM, replicate 2
Hi all, reminder that labels come from Population Tubulin-Different-Phenotype (%), split as interval 1 (below 2%), interval 2 (2% to below 5%), interval 3 (5% or more)

In [3]: df
Out[3]:
                                    compound  testsystem  discretelabel
 0  CN1CCN2c3ncccc3Cc3ccccc3C2C1 (centres undefined)        U2OS     interval 2
 1  C[C@H]1[C@H]2CC[C@H]3[C@@H]4CC=C5C[C@@H](N(C)C)CC[C@]5(C)[C@H]4CC[C@]23CN1C        U2OS     interval 2
 2                           CCCC(CCC)C(=O)O        U2OS     interval 3
 3  CC(C)(C)c1ccc(S(=O)(=O)Nc2ccc(Cl)cc2C(=O)c2cc[n+]([O-])cc2)cc1        U2OS     interval 2
 4  CN(C)CCCc1cc(C(=O)Nc2ccc(-c3ccncc3)cc2)ccc1O.Cl.Cl        U2OS     interval 1
 5  COc1cc(C(=O)N(CCCc2ccccc2)Cc2ccc(CC(=O)O)cc2)cc(OC)c1C        U2OS     interval 1
 6  Cc1ccccc1C(=O)Nc1ccc(C(=O)N2CCCC(N(C)C)c3ccccc32)cc1.Cl (centres undefined)        U2OS     interval 1
 7  CN1CCN(c2nc3cc(C(F)(F)F)ccc3n3cccc23)CC1.O=C(O)/C=C\C(=O)O.O=C(O)/C=C\C(=O)O        U2OS     interval 2
 8  O=S(=O)(c1ccccc1)c1cnc2c(N3CCNCC3)cccc2c1 [INTEPIRDINE]        U2OS     interval 3
 9  C[C@@H]1C[C@H]2[C@@H]3CCC4=CC(=O)C=C[C@]4(C)[C@@]3(F)[C@@H](O)C[C@]2(C)[C@@]1(O)C(=O)CO        U2OS     interval 2
10  Oc1c(CN2CCN(c3ccccn3)CC2)cc(Cl)c2cccnc12        U2OS     interval 3
11  O=C(O)c1cc2ccccc2c(Cc2c(O)c(C(=O)O)cc3ccccc23)c1O        U2OS     interval 3
12  CSc1ccccc1N1CCN(CCCCCC(=O)NC2CCCc3ccccc32)CC1.Cl (centres undefined)        U2OS     interval 3

###

- Tested on: U2OS
- runDescription: Multiplex assay against U2OS
- Assay type: toxicity, cell-based
- measurementParameters: human, 48 h, 1 µM, compound concentration 1 uM, replicate 1
measure: Population Tubulin-Different-Phenotype (%)

                                    molecule  testsystem  unitsymbol  datavalue
 0  C[C@@H]1C[C@H]2[C@@H]3CCC4=CC(=O)C=C[C@]4(C)[C@@]3(F)[C@@H](O)C[C@]2(C)[C@@]1(O)C(=O)CO [DEXAMETHASONE]        U2OS           %          0
 1  c1cc(OCCCN2CCCCC2)ccc1CN1CCCCC1 [JNJ-5207852]        U2OS           %          4
 2           CCCC(CCC)C(=O)O [VALPROIC ACID]        U2OS           %          5
 3  O=C(O)c1cc2ccccc2c(Cc2c(O)c(C(=O)O)cc3ccccc23)c1O [PAMOIC ACID]        U2OS           %          2
 4   CN(C)c1ccnc2sc3c(=O)n(N4CCCCCC4)cnc3c12        U2OS           %          2
 5  Cc1ccccc1C(=O)Nc1ccc(C(=O)N2CCCC(N(C)C)c3ccccc32)cc1.Cl (stereo not drawn)        U2OS           %          3
 6  Cl.Clc1ccc2nsnc2c1NC1=NCCN1 [TIZANIDINE HYDROCHLORIDE]        U2OS           %          2
 7  C[C@H]1[C@H]2CC[C@H]3[C@@H]4CC=C5C[C@@H](N(C)C)CC[C@]5(C)[C@H]4CC[C@]23CN1C [CONESSINE]        U2OS           %          1
 8   CNC[C@H](O)c1ccc(O)c(O)c1 [EPINEPHRINE]        U2OS           %          4
 9  O=C1COc2nccc(-c3ccccc3F)c2CN1Cc1cc(C(F)(F)F)cc(C(F)(F)F)c1        U2OS           %          3
10  Cc1ccc(F)cc1C(=O)Nc1ccc(C(=O)N2Cc3cccn3Cc3ccccc32)c(Cl)c1 [LIXIVAPTAN]        U2OS           %          5
11  N#Cc1c(N)nc(SCc2csc(-c3ccc(Cl)cc3)n2)c(C#N)c1-c1ccc(OCCO)cc1 [CAPADENOSON]        U2OS           %          6
12  O=C(O)Cc1ccccc1Nc1c(Cl)cccc1Cl [DICLOFENAC]        U2OS           %          2

###

- Test system: HEK-293T
- runDescription: Multiplex assay against HEK293T
- Type: toxicity, cell-based
- measurementParameters: human, 48 h, 1 µM, compound concentration 1 uM, replicate 1
measure: Population Mitotic Cells (%)

                                   compound  testsystem                       measure  datavalue
0  COc1ccc2c(c1)C(C(=O)N(Cc1ccc(N(C)C)cc1)c1ccc(C(C)C)cc1)CCC2.Cl (stereo not given)    HEK-293T  Population Mitotic Cells (%)         79
1  O=C1COc2nccc(-c3ccccc3F)c2CN1Cc1cc(C(F)(F)F)cc(C(F)(F)F)c1    HEK-293T  Population Mitotic Cells (%)         72
2  CCNC1(C(N)=O)CCN(c2ncnc3c2nc(-c2ccccc2Cl)n3-c2ccc(Cl)cc2)CC1    HEK-293T  Population Mitotic Cells (%)         65
3  C[C@@H]1C[C@H]2[C@@H]3CCC4=CC(=O)C=C[C@]4(C)[C@@]3(F)[C@@H](O)C[C@]2(C)[C@@]1(O)C(=O)CO    HEK-293T  Population Mitotic Cells (%)         69
4            O=C(O)Cc1ccccc1Nc1c(Cl)cccc1Cl    HEK-293T  Population Mitotic Cells (%)         76
